These measurements were taken from PubChem BioAssay (NCATS).

tested on: Zika virus NS2B-NS3 protease (linked construct); experiment: Primary screen NINDS Rhodamine qHTS for Zika virus inhibitors (AID 1347160); conditions: purified NS2B-NS3 protease, Rhodamine110 substrate fluorescence; series mostly up to 33.1 µM; note: nearly all actives have a fitted effect of over 55% in size
Records with an inconclusive call do not appear. Active and inactive are the calls of the source. Calls come from the whole dose curve; as a rule, active = well fitted inhibition curve with a large enough effect; inconclusive = small, poorly fitted or top-dose-only effect; inactive = no such curve, though single readings can be large or run the other way.
measured metric: outcome

compound="CNC(C)C(=O)NC(C(=O)N1CCCC1C(=O)Nc1cccc2ncccc12)C(C)C (centres undefined)" measured_metric=outcome observed_value=inactive
compound="COc1cc(C2Oc3c(OC)cc(/C=C/C(=O)OC4CC(O)(C(=O)O)CC(O)C4O)cc3C2CO)ccc1O (centres undefined)" measured_metric=outcome observed_value=inactive
compound=COc1c(C)c(OCC=C(C)C)cc2c1COC2=O measured_metric=outcome observed_value=inactive
compound=COc1cc(CO)cc(OC)c1O[C@@H]1O[C@H](CO)[C@@H](O)[C@H](O)[C@H]1O measured_metric=outcome observed_value=inactive
compound=O=C(Nc1ccn(Cc2c(F)cccc2C(F)(F)F)n1)c1c(F)cccc1F measured_metric=outcome observed_value=inactive
compound=COC(=O)/C=C/c1ccc(O[C@@H]2O[C@H](CO)[C@@H](O)[C@H](O)[C@H]2O)cc1 measured_metric=outcome observed_value=inactive
compound="CC1(C)CC[C@]2(C(=O)O)CC[C@]3(C)C(=CCC4[C@@]5(C)CC[C@H](O)C(C)(C)C5CC[C@]43C)C2C1 (some centres undefined)" measured_metric=outcome observed_value=inactive
compound=O=S(=O)(O)c1ccc(Nc2ncnc3c2ncn3[C@@H]2O[C@H](CO)[C@@H](O)[C@H]2O)cc1 measured_metric=outcome observed_value=inactive
compound=COc1cccc(OC)c1-c1ccc(C[C@H](NC(=O)c2c(Cl)cccc2Cl)C(=O)O)cc1 measured_metric=outcome observed_value=inactive
